Quick reference for IC50 among some compounds
target: NS5B polymerase (Hepatitis C virus genotype 1b, UniProt P26663)
Sequence (P26663 2420-3010): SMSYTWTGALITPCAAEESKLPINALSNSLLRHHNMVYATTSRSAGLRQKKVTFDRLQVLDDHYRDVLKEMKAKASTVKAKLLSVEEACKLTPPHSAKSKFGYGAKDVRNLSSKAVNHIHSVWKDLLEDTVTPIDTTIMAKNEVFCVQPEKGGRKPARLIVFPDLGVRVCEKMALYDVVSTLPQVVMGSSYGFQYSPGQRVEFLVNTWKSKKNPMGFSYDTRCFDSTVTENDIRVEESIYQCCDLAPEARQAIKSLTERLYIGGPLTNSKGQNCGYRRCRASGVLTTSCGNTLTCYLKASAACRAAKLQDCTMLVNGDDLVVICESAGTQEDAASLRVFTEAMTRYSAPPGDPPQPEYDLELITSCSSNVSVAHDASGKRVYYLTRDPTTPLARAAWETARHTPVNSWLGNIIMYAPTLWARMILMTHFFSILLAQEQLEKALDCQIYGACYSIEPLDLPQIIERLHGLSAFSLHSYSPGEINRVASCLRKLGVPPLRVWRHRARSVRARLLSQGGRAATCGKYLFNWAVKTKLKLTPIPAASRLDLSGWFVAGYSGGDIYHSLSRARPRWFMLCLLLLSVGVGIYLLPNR

Solved cases below.
| compound | target | IC50 |
| --- | --- | --- |
| CS(=O)(=O)Nc1ccc2c(c1)S(=O)(=O)N=C(C1=C(O)[C@@H]3CCC[C@@H]3N(C3CCCCC3)C1=O)N2 (relative stereo) | NS5B polymerase (Hepatitis C virus genotype 1b, UniProt P26663) | 0.1 to 1 µM |
| CC(C)(C)CCN1C(=O)C(C2=NS(=O)(=O)c3cc(NS(C)(=O)=O)ccc3N2)=C(O)C2CCCCC21 (stereo not drawn) | NS5B polymerase (Hepatitis C virus genotype 1b, UniProt P26663) | 0.02 to 0.1 µM |
| O=C1C(C2=NS(=O)(=O)c3cc(C4=CCCS4(=O)=O)ccc3N2)=C(O)[C@@H]2CCC[C@@H]2N1Cc1ccc(F)cc1 | NS5B polymerase (Hepatitis C virus genotype 1b, UniProt P26663) | 0.1 to 1 µM |
| NCCS(=O)(=O)Nc1ccc2c(c1)S(=O)(=O)N=C(C1=C(O)[C@@H]3CCC[C@@H]3N(Cc3ccc(F)cc3)C1=O)N2 (relative stereo) | NS5B polymerase (Hepatitis C virus genotype 1b, UniProt P26663) | 0.02 to 0.1 µM |
| CS(=O)(=O)Nc1ccc2c(c1)S(=O)(=O)N=C(C1=C(O)[C@@H]3CCC[C@@H]3N(Cc3ccc(Cl)cc3)C1=O)N2 (relative stereo) | NS5B polymerase (Hepatitis C virus genotype 1b, UniProt P26663) | < 0.02 µM |

Could you now consider this next compound?
Qu. Entry CS(=O)(=O)Nc1ccc2c(c1)S(=O)(=O)N=C(C1=C(O)[C@@H]3CCC[C@@H]3N(c3ccccc3)C1=O)N2 (relative stereo) : reported IC50 = ?
Ans. 1 to 100 µM

The reported measurements were obtained from patent US20090111798A1.
